inhibition listing for selected compounds.
Molecular target: Genome polyprotein (Dengue virus type 2 (strain 16681-PDK53)) (UniProt P29991)
Sequence (P29991 whole entry, looked up): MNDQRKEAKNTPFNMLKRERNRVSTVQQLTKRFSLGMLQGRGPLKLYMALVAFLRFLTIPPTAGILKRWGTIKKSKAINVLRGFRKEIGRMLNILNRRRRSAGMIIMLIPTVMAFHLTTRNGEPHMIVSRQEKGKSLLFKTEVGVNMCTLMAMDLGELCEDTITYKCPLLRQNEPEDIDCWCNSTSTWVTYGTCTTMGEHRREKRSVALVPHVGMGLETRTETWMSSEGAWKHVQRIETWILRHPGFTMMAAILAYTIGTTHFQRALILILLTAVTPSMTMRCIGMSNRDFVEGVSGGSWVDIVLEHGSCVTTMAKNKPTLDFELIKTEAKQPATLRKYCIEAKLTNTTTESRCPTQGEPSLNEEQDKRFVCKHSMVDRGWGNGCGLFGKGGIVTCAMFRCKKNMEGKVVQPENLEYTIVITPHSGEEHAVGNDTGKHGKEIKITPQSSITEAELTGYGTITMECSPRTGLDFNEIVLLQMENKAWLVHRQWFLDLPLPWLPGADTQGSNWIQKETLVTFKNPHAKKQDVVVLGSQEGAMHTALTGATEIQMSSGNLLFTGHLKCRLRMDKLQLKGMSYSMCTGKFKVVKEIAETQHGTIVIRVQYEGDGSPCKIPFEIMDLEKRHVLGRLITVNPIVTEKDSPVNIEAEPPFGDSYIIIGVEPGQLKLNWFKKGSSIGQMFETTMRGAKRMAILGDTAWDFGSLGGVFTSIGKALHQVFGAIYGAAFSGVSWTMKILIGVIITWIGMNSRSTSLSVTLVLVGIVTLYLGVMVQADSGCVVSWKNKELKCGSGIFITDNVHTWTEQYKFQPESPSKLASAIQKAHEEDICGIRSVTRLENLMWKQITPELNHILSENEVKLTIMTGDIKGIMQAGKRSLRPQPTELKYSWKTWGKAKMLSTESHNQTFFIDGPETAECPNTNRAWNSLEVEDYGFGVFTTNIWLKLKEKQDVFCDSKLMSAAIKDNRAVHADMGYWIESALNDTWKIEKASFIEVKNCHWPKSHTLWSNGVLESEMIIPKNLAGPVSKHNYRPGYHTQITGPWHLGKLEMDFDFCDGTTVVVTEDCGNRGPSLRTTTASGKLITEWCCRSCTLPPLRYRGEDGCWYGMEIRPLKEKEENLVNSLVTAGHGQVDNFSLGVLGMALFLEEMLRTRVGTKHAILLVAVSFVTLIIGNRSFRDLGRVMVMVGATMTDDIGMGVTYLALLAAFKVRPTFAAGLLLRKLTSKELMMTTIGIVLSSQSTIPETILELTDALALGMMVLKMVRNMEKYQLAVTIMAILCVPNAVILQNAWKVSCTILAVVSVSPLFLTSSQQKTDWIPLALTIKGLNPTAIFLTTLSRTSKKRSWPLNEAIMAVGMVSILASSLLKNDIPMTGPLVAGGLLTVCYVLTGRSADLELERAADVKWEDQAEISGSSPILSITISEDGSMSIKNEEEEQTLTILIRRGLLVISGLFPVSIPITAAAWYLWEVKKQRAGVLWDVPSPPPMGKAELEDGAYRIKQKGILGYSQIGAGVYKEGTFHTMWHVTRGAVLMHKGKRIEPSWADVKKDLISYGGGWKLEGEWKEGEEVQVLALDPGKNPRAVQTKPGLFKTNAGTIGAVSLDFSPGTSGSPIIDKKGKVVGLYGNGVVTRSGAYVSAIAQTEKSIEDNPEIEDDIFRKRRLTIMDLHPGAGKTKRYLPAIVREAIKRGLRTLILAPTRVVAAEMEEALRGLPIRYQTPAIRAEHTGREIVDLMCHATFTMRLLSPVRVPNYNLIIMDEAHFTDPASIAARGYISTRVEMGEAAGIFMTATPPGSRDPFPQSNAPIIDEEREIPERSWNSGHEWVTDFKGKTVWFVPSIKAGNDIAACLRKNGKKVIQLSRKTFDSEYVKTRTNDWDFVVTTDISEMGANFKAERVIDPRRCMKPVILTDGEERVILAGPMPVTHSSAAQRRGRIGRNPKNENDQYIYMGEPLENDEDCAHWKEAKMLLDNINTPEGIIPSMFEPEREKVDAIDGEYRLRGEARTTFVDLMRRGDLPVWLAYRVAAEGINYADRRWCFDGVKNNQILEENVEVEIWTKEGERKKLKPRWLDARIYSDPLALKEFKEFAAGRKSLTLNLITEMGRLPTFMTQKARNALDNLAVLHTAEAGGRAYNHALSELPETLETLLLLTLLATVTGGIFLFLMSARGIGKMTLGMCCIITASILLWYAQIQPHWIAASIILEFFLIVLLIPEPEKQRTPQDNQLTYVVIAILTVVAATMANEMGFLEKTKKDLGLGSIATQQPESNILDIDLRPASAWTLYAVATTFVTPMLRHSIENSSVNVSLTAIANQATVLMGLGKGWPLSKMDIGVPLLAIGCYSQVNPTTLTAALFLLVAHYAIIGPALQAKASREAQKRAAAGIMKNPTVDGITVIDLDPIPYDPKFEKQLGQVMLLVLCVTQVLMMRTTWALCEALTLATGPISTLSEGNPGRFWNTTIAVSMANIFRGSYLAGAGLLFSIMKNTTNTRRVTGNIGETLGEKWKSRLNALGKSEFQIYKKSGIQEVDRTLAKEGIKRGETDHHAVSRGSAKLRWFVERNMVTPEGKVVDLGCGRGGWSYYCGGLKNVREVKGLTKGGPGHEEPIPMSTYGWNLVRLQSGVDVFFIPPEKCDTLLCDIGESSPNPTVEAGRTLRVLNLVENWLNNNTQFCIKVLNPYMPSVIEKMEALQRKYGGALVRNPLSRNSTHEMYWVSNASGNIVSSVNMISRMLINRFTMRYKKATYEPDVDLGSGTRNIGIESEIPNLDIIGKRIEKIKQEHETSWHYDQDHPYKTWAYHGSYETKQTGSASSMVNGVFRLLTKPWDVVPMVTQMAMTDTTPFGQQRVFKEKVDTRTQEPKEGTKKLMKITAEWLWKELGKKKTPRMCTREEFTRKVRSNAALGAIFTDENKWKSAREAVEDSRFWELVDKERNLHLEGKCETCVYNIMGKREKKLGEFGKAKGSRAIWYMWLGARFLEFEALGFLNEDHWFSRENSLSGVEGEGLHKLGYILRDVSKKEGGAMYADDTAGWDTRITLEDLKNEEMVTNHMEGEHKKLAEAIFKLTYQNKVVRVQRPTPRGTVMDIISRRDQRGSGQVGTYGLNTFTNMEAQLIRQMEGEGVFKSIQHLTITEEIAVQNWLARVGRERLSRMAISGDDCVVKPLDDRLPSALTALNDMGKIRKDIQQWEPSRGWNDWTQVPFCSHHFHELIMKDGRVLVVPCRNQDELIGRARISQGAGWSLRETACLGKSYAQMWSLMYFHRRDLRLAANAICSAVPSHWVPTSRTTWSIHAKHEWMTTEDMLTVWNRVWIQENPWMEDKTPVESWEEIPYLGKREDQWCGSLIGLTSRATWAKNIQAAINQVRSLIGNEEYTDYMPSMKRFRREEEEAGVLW
Experiment: flavivirus cap methylation enzyme inhibition – biochemical, confirmation dose response, primary screen (AID 588689)
Details: Dengue-2 NS5 methyltransferase capping enzyme assay, at 25 µM, hits give high values
The campaign covered roughly 340,000 compounds. About 1,000 (0.29%) were called active. The list is a sample of the results. Results with a measured potency or affinity are listed apart.
Please state the figure in %; there is no need to write the unit.

{"columns": ["compound", "target-desc", "result-type", "value"],
 "data": [
  ["CCC(OC(=O)CNS(=O)(=O)c1ccccc1)C(=O)c1ccccc1 (stereo unspecified)", "Genome polyprotein (Dengue virus type 2 (strain 16681-PDK53)) (UniProt P29991)", "inhibition", 5.35],
  ["O=C(Nc1ccc(Cl)c(S(=O)(=O)N2CCOCC2)c1)c1cccs1", "Genome polyprotein (Dengue virus type 2 (strain 16681-PDK53)) (UniProt P29991)", "inhibition", -1.55],
  ["O=C(COC(=O)CSc1ccc([N+](=O)[O-])cc1)NCC1CCCO1 (stereo unspecified)", "Genome polyprotein (Dengue virus type 2 (strain 16681-PDK53)) (UniProt P29991)", "inhibition", 5.91],
  ["O=C(N/N=C/c1cc(Br)c(Br)o1)c1cc2ccccc2o1", "Genome polyprotein (Dengue virus type 2 (strain 16681-PDK53)) (UniProt P29991)", "inhibition", -5.43],
  ["C[C@@H](C[C@@H](O)[C@H](O)C(C)(C)O)[C@@H]1CC[C@]2(C)C3=CC[C@H]4C(C)(C)C(=O)CC[C@]4(C)[C@H]3CC[C@@]12C", "Genome polyprotein (Dengue virus type 2 (strain 16681-PDK53)) (UniProt P29991)", "inhibition", -3.21]
]}

Field: inhibition (Genome polyprotein (Dengue virus type 2 (strain 16681-PDK53)) (UniProt P29991)). Entry: `C/C=N\NC(=O)CNC(=O)CNC(=O)c1ccccc1` -9.83

Another compound to check: `C=CCn1c(SCC#N)nc2ccccc2c1=O` 0.54

`COc1ccc(-c2cc(C(F)(F)F)n3nc(C(=O)NCc4ccco4)cc3n2)cc1` ? -2.82

Okay, and `CCOC(=O)CSc1nnnn1-c1cc(OC)ccc1OC` ? -2.05

Please give the result for `NC1=NN(c2c(Cl)cc(Cl)cc2Cl)C(=O)C1` too. -5.65

Ok, now `COc1cc2cccc(OC)c(=O)c2c(O)c1OC` -2.72

---

Target: Genome polyprotein (Dengue virus type 2 (strain 16681-PDK53))
Assay: flavivirus cap methylation enzyme inhibition – biochemical, confirmation dose response, primary screen (AID 588689)
Settings: Dengue-2 NS5 methyltransferase capping enzyme assay, at 25 µM, hits give high values
The campaign covered roughly 340,000 compounds. About 1,000 (0.29%) were called active. These entries were drawn from the full list. Entries with a potency or affinity are not part of this list.
result-type: inhibition (%)
Hi! Could you send only the number? It should be in %, unit omitted.

Consider the molecule `COc1ccccc1NC(=O)CN1C(=O)COc2ccc(S(=O)(=O)N3CCCCCC3)cc21` and give its measured inhibition. -3.55

// next record `CCCNC(=O)N1C2=NC(C(=O)OC)=C(C(=O)OC)[C@@H]3N(Cc4ccccc4)c4ccccc4[C@]23C[C@H]1CO` -2.73

Another: `Cc1ccccc1N=Nc1ccc(O)c2ncccc12` -2.17

Quick one: CN(Cc1ccccc1F)C(=O)C1CCCN(C(=O)c2ccc(Cl)cc2)C1 (centres undefined) 3.62

Follow-up item: `CC(C)(C)[C@@H]1C=C(C(=O)O)[C@H](c2ccc(Cl)cc2)N1S(=O)(=O)c1ccccc1` -3.97

Let us now turn to `COc1cc(/C=C2\SC(=O)N(c3ccccc3Cl)C2=O)cc([N+](=O)[O-])c1O` -6.99

Also, CC(=O)C1=C(O)C(=O)N(c2ccc(C)cc2)C1c1ccc([N+](=O)[O-])cc1 (centres undefined) please. 2.73

Subsequent entry: `Cc1cccc(NC2=C(NCCO)C(=O)c3ccccc3C2=O)c1` 1.45

Also need `O=C(Nc1ccccc1)c1ccccc1NC(=O)[C@H]1CCCC[C@H]1C(=O)O` , thanks. -3.92

Subsequent entry: `COc1ccc(-c2cc(C(=O)NCCN3CCOCC3)c3ccccc3n2)c(OC)c1` -2.05

And then `O=C(c1ccccc1)c1ccccc1` , what is it? -1.45

And then `NS(=O)(=O)c1ccc2nc(NC(=O)Nc3ccc(F)cc3)sc2c1` , what is it? -9.52

# repeat for `O=C(C1CCN(Cc2ccc(Cl)cc2)CC1)N1CCN(C(c2ccccc2)c2ccccc2)CC1` -2.91
